Molecular target: GDP-bound KRAS protein (aa 1-169), containing both G12D and C118A amino acid substitutions (Homo sapiens, UniProt P01116, C118A/G12D)
Sequence (P01116 1-169 isoform P01116-2 G12D/C118A): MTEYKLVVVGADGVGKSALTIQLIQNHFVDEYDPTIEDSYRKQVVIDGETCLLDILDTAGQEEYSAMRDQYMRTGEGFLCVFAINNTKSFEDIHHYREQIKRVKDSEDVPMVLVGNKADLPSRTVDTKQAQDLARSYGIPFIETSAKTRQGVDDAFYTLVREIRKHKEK
Test: KRAS G12D Coupled Nucleotide Exchange Assay
Assay type: biochemical
Settings: 2 h compound pre-incubation
property: Avg 2 h Coupled Exchange IC50 (nM)

>  <record.smiles>
Nc1cc(-c2c(F)cc3c(N4C[C@H]5CC[C@@H](C4)N5)nc(OC[C@@]45CCCN4C[C@H](F)C5)nc3c2F)c2ccccc2c1

>  <property>
Avg 2 h Coupled Exchange IC50

>  <measurement.unit>
nM

>  <result.number>
5

$$$$
>  <record.smiles>
CCc1cccc2cc(O)cc(-c3c(Cl)cc4c(N5C[C@@H]6CC[C@H]5CN6)nc(OC[C@@]56CCCN5C[C@H](F)C6)nc4c3F)c12

>  <property>
Avg 2 h Coupled Exchange IC50

>  <measurement.unit>
nM

>  <result.number>
5

$$$$
>  <record.smiles>
CCc1c(F)ccc2cc(O)cc(-c3cc(F)c4c(N5C[C@H]6CC[C@@H](C5)N6)nc(OC[C@@]56CCCN5C[C@H](F)C6)nc4c3F)c12

>  <property>
Avg 2 h Coupled Exchange IC50

>  <measurement.unit>
nM

>  <result.number>
5

$$$$

* * *

Target: GDP-bound KRAS protein (aa 1-169), containing both G12D and C118A amino acid substitutions (Homo sapiens, UniProt P01116, C118A/G12D)
Assay: KRAS G12D Coupled Nucleotide Exchange Assay
Type: biochemical
Details: 2 h compound pre-incubation
property: Avg 2 h Coupled Exchange IC50 (nM)

>  <record.smiles>
Nc1cc(-c2ccc3c(N4[C@@H]5CC[C@H]4CNC5)nc(OC[C@@]45CCCN4C[C@H](F)C5)nc3c2F)c2ccccc2c1

>  <result.number>
18

$$$$
>  <record.smiles>
CN1CCC[C@H]1CCOc1nc(N2[C@@H]3CNC[C@H]2COC3)c2ccc(-c3cc(O)cc4ccccc34)c(F)c2n1

>  <result.number>
125

$$$$
>  <record.smiles>
Nc1cc(-c2c(F)cc3c(N4C[C@@H]5CC[C@H]4CN5)nc(OC[C@@]45CCCN4C[C@H](F)C5)nc3c2F)c2ccccc2c1

>  <result.number>
7

$$$$
>  <record.smiles>
Oc1cc(-c2cc3nc(OC[C@@]45CCCN4C[C@H](F)C5)nc(N4C[C@H]5CC[C@@H](C4)N5)c3cc2F)c2c(F)c(F)ccc2c1

>  <result.number>
2

$$$$
>  <record.smiles>
CCc1c(F)ccc2cc(O)cc(-c3c(F)cc4c(N5C[C@@H]6CC[C@H]5CN6)nc(OC[C@@]56CCCN5C[C@H](F)C6)nc4c3F)c12

>  <result.number>
6

$$$$
>  <record.smiles>
Oc1cc(-c2ccc3c(N4[C@@H]5CC[C@H]4CNC5)nc(OC[C@@]45CCCN4C[C@H](F)C5)nc3c2F)c2ccccc2c1

>  <result.number>
3

$$$$

* * *

Target: His-tagged KRAS G12D protein (Homo sapiens, UniProt P01116, G12D)
Sequence (P01116 1-188 isoform P01116-2 G12D): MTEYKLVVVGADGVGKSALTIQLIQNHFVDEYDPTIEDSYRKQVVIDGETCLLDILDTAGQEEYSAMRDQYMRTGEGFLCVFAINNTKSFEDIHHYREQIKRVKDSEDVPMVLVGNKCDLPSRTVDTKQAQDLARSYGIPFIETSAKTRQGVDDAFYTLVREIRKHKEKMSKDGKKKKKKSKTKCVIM
Experiment: KRAS G12D TR-FRET Assay
# note: exactly 10 nM is not below, so it is criterion not met; use criterion met for IC50 strictly under it

>  <compound>
N#Cc1cccc2cc(O)cc(-c3ccc4c(N5C[C@H]6CC[C@@H](C5)N6)nc(OC[C@@]56CCCN5C[C@H](F)C6)nc4c3F)c12

>  <assigned.category>
criterion met

$$$$
>  <compound>
Oc1cc(Cl)c(C2CC2)c(-c2c(F)cc3c(N4C[C@H]5CC[C@@H](C4)N5)nc(OC[C@@]45CCCN4C[C@H](F)C5)nc3c2F)c1

>  <assigned.category>
criterion met

$$$$
>  <compound>
C#Cc1cccc2cc(O)cc(-c3ccc4c(N5C[C@H]6CC[C@@H](C5)N6)nc(OC[C@@]56CCCN5C[C@H](F)C6)nc4c3F)c12

>  <assigned.category>
criterion met

$$$$
>  <compound>
Cc1ccc2[nH]nc(C)c2c1-c1c(F)cc2c(N3C[C@H]4CC[C@@H](C3)N4)nc(OC[C@@]34CCCN3C[C@H](F)C4)nc2c1F

>  <assigned.category>
criterion not met

$$$$
>  <compound>
C#Cc1c(F)ccc2cc(O)cc(-c3ccc4c(N5C[C@H]6CC[C@@H](C5)N6)nc(OC[C@@]56CCCN5C[C@H](F)C6)nc4c3F)c12

>  <assigned.category>
criterion met

$$$$
>  <compound>
Oc1cc(-c2ccc3c(N4C[C@H]5COC[C@@H](C4)N5)nc(OC[C@@]45CCCN4C[C@H](F)C5)nc3c2F)c2ccccc2c1

>  <assigned.category>
criterion not met

$$$$
>  <compound>
CN1C[C@H](F)C[C@H]1COc1nc(N2[C@@H]3CNC[C@H]2COC3)c2cc(F)c(-c3cc(O)cc4ccccc34)c(F)c2n1

>  <assigned.category>
criterion not met

$$$$
>  <compound>
Cc1c(-c2cc(O)cc3cccc(Cl)c23)ccc2c(N3[C@@H]4CC[C@H]3CNC4)nc(OC[C@@]34CCCN3C[C@H](F)C4)nc12

>  <assigned.category>
criterion not met

$$$$
>  <compound>
C#Cc1cccc2cc(O)cc(-c3c(F)cc4c(N5C[C@@H]6CC[C@H]5CN6)nc(OC[C@@]56CCCN5C[C@H](F)C6)nc4c3F)c12

>  <assigned.category>
criterion met

$$$$
>  <compound>
C#Cc1cccc2cc(O)cc(-c3cc4nc(OC[C@@]56CCCN5C[C@H](F)C6)nc(N5C[C@H]6CC[C@@H](C5)N6)c4cc3F)c12

>  <assigned.category>
criterion met

$$$$
>  <compound>
CC(C)(O)COc1nc(N2C[C@H]3CC[C@@H](C2)N3)c2cc(F)c(-c3cc(O)cc4ccccc34)c(F)c2n1

>  <assigned.category>
criterion not met

$$$$
>  <compound>
Oc1cc(-c2c(F)cc3c(N4C[C@@H]5CC[C@H]4CN5)nc(OC[C@@]45CCCN4C[C@H](F)C5)nc3c2F)c2c(F)c(F)ccc2c1

>  <assigned.category>
criterion met

$$$$
>  <compound>
CCc1c(F)ccc2cc(O)cc(-c3c(O)cc4c(N5CC6CCC(C5)N6)nc(OCC56CCCN5C[C@H](F)C6)nc4c3F)c12 (atropisomer, axis not shown; (M))

>  <assigned.category>
criterion met

$$$$
>  <compound>
CCc1c(F)ccc2cc(O)cc(-c3ccc4c(N5C[C@H]6CC[C@@H](C5)N6)nc(OCC(C)(C)O)nc4c3F)c12

>  <assigned.category>
criterion met

$$$$
>  <compound>
Oc1cc(-c2cc3nc(OC[C@@]45CCCN4C[C@H](F)C5)nc(N4C[C@H]5CC[C@@H](C4)N5)c3cc2F)c2c(Cl)cccc2c1

>  <assigned.category>
criterion met

$$$$
>  <compound>
CCc1c(F)ccc2cccc(-c3c(F)cc4c(N5C[C@H]6CC[C@@H](C5)N6)nc(OC[C@@]56CCCN5C[C@H](F)C6)nc4c3F)c12

>  <assigned.category>
criterion met

$$$$
>  <compound>
Oc1cc(-c2ccc3c(N4[C@@H]5CC[C@H]4CNC5)nc(OC[C@@]45CCCN4C[C@H](F)C5)nc3c2)c2ccccc2c1

>  <assigned.category>
criterion not met

$$$$

* * *

# reported Avg 2 h Coupled Exchange IC50; entries follow
Biological target: GDP-bound KRAS protein (aa 1-169), containing both G12D and C118A amino acid substitutions (Homo sapiens, UniProt P01116, C118A/G12D)
Assay: KRAS G12D Coupled Nucleotide Exchange Assay
Assay type: biochemical
Settings: 2 h compound pre-incubation

>  <molecule>
Cc1ccc2cnn(C)c2c1-c1c(Cl)cc2c(N3C[C@H]4CC[C@@H](C3)N4)nc(OC[C@@]34CCCN3C[C@H](F)C4)nc2c1F [Example 76]

>  <Avg 2 h Coupled Exchange IC50>
8 nM

$$$$
>  <molecule>
Cc1ccc2[nH]nc(C)c2c1-c1c(Cl)cc2c(N3C[C@H]4CC[C@@H](C3)N4)nc(OC[C@@]34CCCN3C[C@H](F)C4)nc2c1F [Example 207]

>  <Avg 2 h Coupled Exchange IC50>
7 nM

$$$$
>  <molecule>
CCc1c(F)ccc2cc(O)cc(-c3c(F)cc4c(N5C[C@H]6CC[C@@H](C5)N6)nc(OC[C@@]56CCCN5C[C@H](F)C6)nc4c3F)c12 [Example 88]

>  <Avg 2 h Coupled Exchange IC50>
4 nM

$$$$
>  <molecule>
CN1C[C@H](F)C[C@H]1COc1nc(N2[C@@H]3CNC[C@H]2COC3)c2cc(F)c(-c3cc(O)cc4ccccc34)c(F)c2n1 [Example 18]

>  <Avg 2 h Coupled Exchange IC50>
18 nM

$$$$
>  <molecule>
CCc1c(F)ccc2cc(O)cc(-c3ccc4c(N5CC6CCC(C5)N6)nc(OC[C@@]56CCCN5C[C@H](F)C6)nc4c3)c12 [Example 111]

>  <Avg 2 h Coupled Exchange IC50>
1 nM

$$$$
>  <molecule>
C#Cc1cccc2cc(O)cc(-c3c(F)cc4c(N5C[C@@H]6CC[C@H]5CN6)nc(OC[C@@]56CCCN5C[C@H](F)C6)nc4c3F)c12 [Example 180]

>  <Avg 2 h Coupled Exchange IC50>
4 nM

$$$$
>  <molecule>
CCc1cccc2cccc(-c3c(F)cc4c(N5C[C@H]6CC[C@@H](C5)N6)nc(OC[C@@]56CCCN5C[C@H](F)C6)nc4c3F)c12 [Example 68]

>  <Avg 2 h Coupled Exchange IC50>
3 nM

$$$$
>  <molecule>
Cc1c(Cl)cc2[nH]ncc2c1-c1ccc2c(N3C[C@H]4CC[C@@H](C3)N4)nc(OC[C@@]34CCCN3C[C@H](F)C4)nc2c1F [Example 192]

>  <Avg 2 h Coupled Exchange IC50>
2 nM

$$$$
>  <molecule>
Oc1cc(-c2ccc3c(N4[C@@H]5CC[C@H]4CNC5)nc(OC[C@@]45CCCN4C[C@H](F)C5)nc3c2)c2ccccc2c1 [Example 11]

>  <Avg 2 h Coupled Exchange IC50>
9 nM

$$$$
>  <molecule>
Fc1cc2c(N3[C@@H]4CC[C@H]3CNC4)nc(OC[C@@]34CCCN3C[C@H](F)C4)nc2c(F)c1-c1cncc2cccc(Cl)c12 [Example 101]

>  <Avg 2 h Coupled Exchange IC50>
35 nM

$$$$
